# Lookup of reported melting point keyed by entry
Property Name: melting point

* CCN(CC)CCOc1ccc(Nc2ncc3c(n2)N(c2cccc(CCN)c2)C(=O)N(c2ccc(Cl)cc2Cl)C3)cc1 | 108 °C
* CSC1Oc2ccccc2C1=O (stereo not given) | 81 to 82 °C
* c1ccc(Cn2cnc3c(OC4CN5CCC4CC5)nccc32)cc1 (stereo not given) | 162 to 183 °C
* COCO[C@@H]1[C@H]2OC(C)(C)O[C@H]2[C@H](O[C@H]2C[C@H]3OC(C)(C)OC[C@]34C3C(CC[C@]4(O)C2)[C@@]2(O)CC[C@H](CO)[C@@]2(C)C[C@H]3OCOC)O[C@H]1C (stereo not given in full) | 126 to 129 °C
* O=C(c1cccnc1)c1cc2cc(Br)ccc2o1 | 144 to 145 °C
